protocol-notes: Cytotoxicity assay (LDH release), hRPTEC
Type: cell-based, human
test-context: human
Bridge positions count the residues as written; N and C are the ends. Square brackets hold non-standard residues; d marks the D form. Peptide text beside a SMILES is read from it. * marks the point of attachment. X25 = O=C(c1ccc(Cl)c(-c2ccccn2)c1)*; X30 = O=C(c1ccc(Cl)c(-c2ccccc2)c1)*; X34 = COc1ccc(-c2cc(C(=O)*)ccn2)cc1; Dab = NCC[C@H](N)C(=O)O; Dap = NC[C@H](N)C(=O)O
measured-quantity: CC50 at 24 h
The reply should read as a number followed by its unit.

Example results:
COc1ccc(-c2cc(C(=O)N[C@@H](CCN)C(=O)N[C@H](C(=O)N[C@@H](CN)C(=O)N[C@H]3CCNC(=O)[C@H]([C@@H](C)O)NC(=O)[C@H](CCN)NC(=O)[C@H](CCN)NC(=O)[C@H](CC(C)C)NC(=O)[C@@H](Cc4ccccc4)NC(=O)[C@H](CCN)NC3=O)[C@@H](C)O)ccn2)cc1 [Example 22] (X34-[Dab]T[Dap][Dab][Dab][dF]L[Dab][Dab]T; lactam 4-C)	78 µM
CC(C)C[C@@H]1NC(=O)[C@@H](Cc2ccccc2)NC(=O)[C@H](CCN)NC(=O)[C@@H](NC(=O)[C@H](CN)NC(=O)[C@@H](NC(=O)[C@H](CCN)NC(=O)c2ccc(Cl)c(-c3ccccc3)c2)[C@@H](C)O)CCNC(=O)[C@H]([C@@H](C)O)NC(=O)[C@H](CCN)NC(=O)[C@H](CCN)NC1=O [Example 10] (X30-[Dab]T[Dap][Dab][Dab][dF]L[Dab][Dab]T; lactam 4-C)	14 µM

Now for the compound whose CC50 at 24 h we want.
Entry under test: CC(C)C[C@@H]1NC(=O)[C@@H](Cc2ccccc2)NC(=O)[C@H](CCN)NC(=O)[C@@H](NC(=O)[C@H](CN)NC(=O)[C@@H](NC(=O)[C@H](CCN)NC(=O)c2ccc(Cl)c(-c3ccccn3)c2)[C@@H](C)O)CCNC(=O)[C@H]([C@@H](C)O)NC(=O)[C@H](CCN)NC(=O)[C@H](CCN)NC1=O [Example 28] (X25-[Dab]T[Dap][Dab][Dab][dF]L[Dab][Dab]T; lactam 4-C) . Its CC50 at 24 h was 72 µM

* * *

System: AB-3167, clinical isolate of Acinetobacter baumannii
Format: cell-based
test-context: AB-3167, clinical isolate of
Bridge positions count the residues as written; N and C are the ends. Square brackets hold non-standard residues; d marks the D form. Peptide text beside a SMILES is read from it. * marks the point of attachment. X19 = N#Cc1ccc(-c2cccc(C(=O)*)c2)nc1; X22 = COc1cccc(-c2cc(C(=O)*)ccn2)c1; X3 = O=C(c1ccnc(-c2cccc(Cl)c2)c1)*; Dab = NCC[C@H](N)C(=O)O; Dap = NC[C@H](N)C(=O)O
measured-quantity: AB-3167 MIC

Example results:
CC(C)C[C@@H]1NC(=O)[C@@H](Cc2ccccc2)NC(=O)[C@H](CCN)NC(=O)[C@@H](NC(=O)[C@H](CN)NC(=O)[C@@H](NC(=O)[C@H](CCN)NC(=O)c2ccnc(-c3cccc(Cl)c3)c2)[C@@H](C)O)CCNC(=O)[C@H]([C@@H](C)O)NC(=O)[C@H](CCN)NC(=O)[C@H](CCN)NC1=O [Example 3] (X3-[Dab]T[Dap][Dab][Dab][dF]L[Dab][Dab]T; lactam 4-C)	0.25 µg/mL
COc1cccc(-c2cc(C(=O)N[C@@H](CCN)C(=O)N[C@H](C(=O)N[C@@H](CN)C(=O)N[C@H]3CCNC(=O)[C@H]([C@@H](C)O)NC(=O)[C@H](CCN)NC(=O)[C@H](CCN)NC(=O)[C@H](CC(C)C)NC(=O)[C@@H](Cc4ccccc4)NC(=O)[C@H](CCN)NC3=O)[C@@H](C)O)ccn2)c1 [Example 29] (X22-[Dab]T[Dap][Dab][Dab][dF]L[Dab][Dab]T; lactam 4-C)	0.5 µg/mL

Now for the compound whose AB-3167 MIC we want.
Entry under test: CC(C)C[C@@H]1NC(=O)[C@@H](Cc2ccccc2)NC(=O)[C@H](CCN)NC(=O)[C@@H](NC(=O)[C@H](CN)NC(=O)[C@@H](NC(=O)[C@H](CCN)NC(=O)c2cccc(-c3ccc(C#N)cn3)c2)[C@@H](C)O)CCNC(=O)[C@H]([C@@H](C)O)NC(=O)[C@H](CCN)NC(=O)[C@H](CCN)NC1=O [Example 26] (X19-[Dab]T[Dap][Dab][Dab][dF]L[Dab][Dab]T; lactam 4-C) . Its AB-3167 MIC was 1 µg/mL
